- System: IFN-γ
- procedureDetails: IFN-γ production by PHA-stimulated human PBMC (OptEIA human IFN-g ELISA)
- Assay type: cell-based
- assayConditions: human PBMC, 2 μg/ml PHA, 48 hours; read-out: C: IC50 (IFNγ)
IC50 for assorted molecules
observedProperty: IC50

>  <chemicalStructure>
Fc1cccc(Cl)c1-c1noc(-c2cnn(-c3cccc(Cl)c3)c2C(F)(F)F)c1-c1ccoc1

>  <reportedValue>
< 10 nM

$$$$
>  <chemicalStructure>
Fc1cccc(Cl)c1-c1noc(-c2cnn(-c3ccccn3)c2C(F)(F)F)c1-c1nnco1

>  <reportedValue>
10 to 100 nM

$$$$
>  <chemicalStructure>
Fc1cccc(-n2ncc(-c3onc(-c4c(F)cccc4Cl)c3-c3nnn[nH]3)c2C(F)(F)F)c1

>  <reportedValue>
1000 to 10000 nM

$$$$
>  <chemicalStructure>
Fc1cccc(-n2ncc(-c3onc(-c4c(F)cccc4Cl)c3-c3ccccc3)c2C(F)(F)F)c1

>  <reportedValue>
10 to 100 nM

$$$$
>  <chemicalStructure>
CCOC(=O)c1csc(-c2c(-c3c(F)cccc3Cl)noc2-c2cnn(-c3cccc(F)c3)c2C(F)(F)F)n1

>  <reportedValue>
100 to 1000 nM

$$$$
>  <chemicalStructure>
Fc1cccc(Cl)c1-c1noc(-c2cnn(-c3cccc(Cl)c3)c2C(F)(F)F)c1-c1nncs1

>  <reportedValue>
< 10 nM

$$$$
>  <chemicalStructure>
Cc1nnc(-c2c(-c3c(F)cccc3Cl)noc2-c2cnn(-c3cccnc3)c2C(F)(F)F)o1

>  <reportedValue>
10 to 100 nM

$$$$
>  <chemicalStructure>
Fc1cccc(-n2ncc(-c3onc(-c4c(F)cccc4Cl)c3-c3nnc(C(F)(F)F)o3)c2C(F)(F)F)c1

>  <reportedValue>
10 to 100 nM

$$$$
>  <chemicalStructure>
Cc1nnc(-c2c(-c3c(F)cccc3Cl)noc2-c2cnn(-c3cccc(S(N)(=O)=O)c3)c2C(F)(F)F)s1

>  <reportedValue>
1000 to 10000 nM

$$$$
>  <chemicalStructure>
Cc1nnc(-c2c(-c3c(F)cccc3Cl)noc2-c2cnn(-c3ccncc3)c2C(F)(F)F)o1

>  <reportedValue>
100 to 1000 nM

$$$$
>  <chemicalStructure>
COc1csc(-c2c(-c3c(F)cccc3Cl)noc2-c2cnn(-c3cccc(F)c3)c2C(F)(F)F)n1

>  <reportedValue>
10 to 100 nM

$$$$
>  <chemicalStructure>
COC(=O)c1csc(-c2c(-c3c(F)cccc3Cl)noc2-c2cnn(-c3cccc(F)c3)c2C(F)(F)F)n1

>  <reportedValue>
10 to 100 nM

$$$$
>  <chemicalStructure>
Cc1nnc(-c2c(-c3c(F)cccc3Cl)noc2-c2cnn(-c3ccccn3)c2C(F)(F)F)o1

>  <reportedValue>
10 to 100 nM

$$$$
>  <chemicalStructure>
NS(=O)(=O)c1cccc(-n2ncc(-c3onc(-c4c(F)cccc4Cl)c3-c3nnco3)c2C(F)(F)F)c1

>  <reportedValue>
1000 to 10000 nM

$$$$
>  <chemicalStructure>
Cc1nnc(-c2c(-c3c(F)cccc3Cl)noc2-c2cnn(-c3ccccc3F)c2C(F)(F)F)s1

>  <reportedValue>
10 to 100 nM

$$$$
>  <chemicalStructure>
Cc1nnc(-c2c(-c3c(F)cccc3Cl)noc2-c2cnn(-c3ccccc3Cl)c2C(F)(F)F)o1

>  <reportedValue>
1000 to 10000 nM

$$$$
>  <chemicalStructure>
Fc1cccc(Cl)c1-c1noc(-c2cnn(-c3ccccc3Cl)c2C(F)(F)F)c1-c1nnco1

>  <reportedValue>
1000 to 10000 nM

$$$$
>  <chemicalStructure>
Fc1ccccc1-n1ncc(-c2onc(-c3c(F)cccc3Cl)c2-c2nccs2)c1C(F)(F)F

>  <reportedValue>
10 to 100 nM

$$$$
>  <chemicalStructure>
Fc1ccccc1-n1ncc(-c2onc(-c3c(F)cccc3Cl)c2-c2nnco2)c1C(F)(F)F

>  <reportedValue>
100 to 1000 nM

$$$$
>  <chemicalStructure>
Cc1nnc(-c2c(-c3c(F)cccc3Cl)noc2-c2cnn(-c3cccnc3)c2C(F)(F)F)s1

>  <reportedValue>
10 to 100 nM

$$$$
>  <chemicalStructure>
Fc1cccc(Cl)c1-c1noc(-c2cnn(-c3ccncc3)c2C(F)(F)F)c1-c1nnco1

>  <reportedValue>
100 to 1000 nM

$$$$
>  <chemicalStructure>
Cc1nnc(-c2c(-c3c(F)cccc3Cl)noc2-c2cnn(-c3cccc(Cl)c3)c2C(F)(F)F)o1

>  <reportedValue>
< 10 nM

$$$$
>  <chemicalStructure>
Cc1nnc(-c2c(-c3c(F)cccc3Cl)noc2-c2cnn(-c3ccccc3Cl)c2C(F)(F)F)s1

>  <reportedValue>
100 to 1000 nM

$$$$
>  <chemicalStructure>
Fc1cccc(Cl)c1-c1noc(-c2cnn(-c3cccc(Cl)c3)c2C(F)(F)F)c1-c1nnn[nH]1

>  <reportedValue>
1000 to 10000 nM

$$$$
>  <chemicalStructure>
Fc1cccc(Cl)c1-c1noc(-c2cnn(-c3ccncc3)c2C(F)(F)F)c1-c1ccoc1

>  <reportedValue>
10 to 100 nM

$$$$
>  <chemicalStructure>
COc1cccc(Cl)c1-c1noc(-c2cnn(-c3cccnc3)c2C(F)(F)F)c1-c1cnco1

>  <reportedValue>
100 to 1000 nM

$$$$
>  <chemicalStructure>
Fc1cccc(Cl)c1-c1noc(-c2cnn(-c3ccncc3)c2C(F)(F)F)c1-c1cnco1

>  <reportedValue>
100 to 1000 nM

$$$$
>  <chemicalStructure>
Fc1cccc(Cl)c1-c1noc(-c2cnn(-c3cccc(Cl)c3)c2C(F)(F)F)c1-c1nccs1

>  <reportedValue>
< 10 nM

$$$$
>  <chemicalStructure>
Fc1ccccc1-n1ncc(-c2onc(-c3c(F)cccc3Cl)c2-c2cnco2)c1C(F)(F)F

>  <reportedValue>
100 to 1000 nM

$$$$
>  <chemicalStructure>
Fc1cccc(Cl)c1-c1noc(-c2cnn(-c3cccc(Cl)c3)c2C(F)(F)F)c1-c1nnco1

>  <reportedValue>
< 10 nM

$$$$

---

pIC50 for assorted molecules
- Test system: PBMC from healthy human donors
- procedureDetails: T cell proliferation assay (PHA-stimulated human PBMC, BrdU ELISA)
- Format: cell-based
- assayConditions: human PBMC, 2 μg/ml PHA, 48 hours, read-out: D: IC50 (Tcell proliferation)
pIC50: −log10 of the molar value.
observedProperty: pIC50

>  <chemicalStructure>
COc1cccc(Cl)c1-c1noc(-c2cnn(-c3cccnc3)c2C(F)(F)F)c1-c1cnco1

>  <observedProperty>
pIC50

>  <reportedValue>
5.00 to 6.00

$$$$
>  <chemicalStructure>
Fc1cccc(Cl)c1-c1noc(-c2cnn(-c3cccnc3)c2C(F)(F)F)c1-c1cnco1

>  <observedProperty>
pIC50

>  <reportedValue>
5.00 to 6.00

$$$$
>  <chemicalStructure>
Fc1cccc(Cl)c1-c1noc(-c2cnn(-c3cccc(Cl)c3)c2C(F)(F)F)c1-c1nnn[nH]1

>  <observedProperty>
pIC50

>  <reportedValue>
5.00 to 6.00

$$$$
>  <chemicalStructure>
COC(=O)c1csc(-c2c(-c3c(F)cccc3Cl)noc2-c2cnn(-c3cccc(F)c3)c2C(F)(F)F)n1

>  <observedProperty>
pIC50

>  <reportedValue>
6.00 to 7.00

$$$$
>  <chemicalStructure>
CC(=O)Nc1cccc(-n2ncc(-c3onc(-c4c(F)cccc4Cl)c3-c3nnc(C)s3)c2C(F)(F)F)c1

>  <observedProperty>
pIC50

>  <reportedValue>
5.00 to 6.00

$$$$
>  <chemicalStructure>
Fc1cccc(Cl)c1-c1noc(-c2cnn(-c3cccnc3)c2C(F)(F)F)c1-c1nnco1

>  <observedProperty>
pIC50

>  <reportedValue>
6.00 to 7.00

$$$$
>  <chemicalStructure>
Fc1cccc(-n2ncc(-c3onc(-c4c(F)cccc4Cl)c3-c3ccccc3)c2C(F)(F)F)c1

>  <observedProperty>
pIC50

>  <reportedValue>
6.00 to 7.00

$$$$
>  <chemicalStructure>
Cc1nnc(-c2c(-c3c(F)cccc3Cl)noc2-c2cnn(-c3ccccc3F)c2C(F)(F)F)s1

>  <observedProperty>
pIC50

>  <reportedValue>
6.00 to 7.00

$$$$
>  <chemicalStructure>
Fc1cccc(-n2ncc(-c3onc(-c4c(F)cccc4Cl)c3-c3ccoc3)c2C(F)(F)F)c1

>  <observedProperty>
pIC50

>  <reportedValue>
5.00 to 6.00

$$$$

---

- Tested on: PBMC from healthy human donors
- procedureDetails: T cell proliferation assay (PHA-stimulated human PBMC, BrdU ELISA)
- Format: cell-based
- assayConditions: human PBMC, 2 μg/ml PHA, 48 hours, read-out: D: IC50 (Tcell proliferation)
pIC50: −log10 of the molar value.
pIC50 for assorted compounds

>  <chemicalStructure>
Cc1nnc(-c2c(-c3c(F)cccc3Cl)noc2-c2cnn(-c3cccc(S(N)(=O)=O)c3)c2C(F)(F)F)s1

>  <system>
PBMC from healthy human donors

>  <pIC50>
5.00 to 6.00

$$$$
>  <chemicalStructure>
Fc1cccc(Cl)c1-c1noc(-c2cnn(-c3cccc(Cl)c3)c2C(F)(F)F)c1-c1cnco1

>  <system>
PBMC from healthy human donors

>  <pIC50>
> 8.00

$$$$
>  <chemicalStructure>
Fc1ccccc1-n1ncc(-c2onc(-c3c(F)cccc3Cl)c2-c2cnco2)c1C(F)(F)F

>  <system>
PBMC from healthy human donors

>  <pIC50>
6.00 to 7.00

$$$$
>  <chemicalStructure>
Fc1cccc(Cl)c1-c1noc(-c2cnn(-c3ccccn3)c2C(F)(F)F)c1-c1nnco1

>  <system>
PBMC from healthy human donors

>  <pIC50>
7.00 to 8.00

$$$$
>  <chemicalStructure>
Fc1ccccc1-n1ncc(-c2onc(-c3c(F)cccc3Cl)c2-c2ccoc2)c1C(F)(F)F

>  <system>
PBMC from healthy human donors

>  <pIC50>
6.00 to 7.00

$$$$
>  <chemicalStructure>
Fc1cccc(-n2ncc(-c3onc(-c4c(F)cccc4Cl)c3-c3nnn[nH]3)c2C(F)(F)F)c1

>  <system>
PBMC from healthy human donors

>  <pIC50>
5.00 to 6.00

$$$$
>  <chemicalStructure>
Fc1cccc(-n2ncc(-c3onc(-c4c(F)cccc4Cl)c3-c3nnc(C(F)(F)F)o3)c2C(F)(F)F)c1

>  <system>
PBMC from healthy human donors

>  <pIC50>
7.00 to 8.00

$$$$
>  <chemicalStructure>
CCOC(=O)c1csc(-c2c(-c3c(F)cccc3Cl)noc2-c2cnn(-c3cccc(F)c3)c2C(F)(F)F)n1

>  <system>
PBMC from healthy human donors

>  <pIC50>
6.00 to 7.00

$$$$
>  <chemicalStructure>
Cc1nnc(-c2c(-c3c(F)cccc3Cl)noc2-c2cnn(-c3cccc(Cl)c3)c2C(F)(F)F)o1

>  <system>
PBMC from healthy human donors

>  <pIC50>
> 8.00

$$$$
>  <chemicalStructure>
Fc1cccc(Cl)c1-c1noc(-c2cnn(-c3ccccc3Cl)c2C(F)(F)F)c1-c1nccs1

>  <system>
PBMC from healthy human donors

>  <pIC50>
5.00 to 6.00

$$$$
>  <chemicalStructure>
Cc1nnc(-c2c(-c3c(F)cccc3Cl)noc2-c2cnn(-c3cccnc3)c2C(F)(F)F)s1

>  <system>
PBMC from healthy human donors

>  <pIC50>
7.00 to 8.00

$$$$
>  <chemicalStructure>
Fc1cccc(Cl)c1-c1noc(-c2cnn(-c3ccncc3)c2C(F)(F)F)c1-c1cnco1

>  <system>
PBMC from healthy human donors

>  <pIC50>
5.00 to 6.00

$$$$
>  <chemicalStructure>
Cc1nnc(-c2c(-c3c(F)cccc3Cl)noc2-c2cnn(-c3ccccn3)c2C(F)(F)F)s1

>  <system>
PBMC from healthy human donors

>  <pIC50>
7.00 to 8.00

$$$$
>  <chemicalStructure>
Fc1cccc(Cl)c1-c1noc(-c2cnn(-c3cccc(Cl)c3)c2C(F)(F)F)c1-c1nncs1

>  <system>
PBMC from healthy human donors

>  <pIC50>
> 8.00

$$$$
>  <chemicalStructure>
COc1csc(-c2c(-c3c(F)cccc3Cl)noc2-c2cnn(-c3cccc(F)c3)c2C(F)(F)F)n1

>  <system>
PBMC from healthy human donors

>  <pIC50>
7.00 to 8.00

$$$$
>  <chemicalStructure>
Cc1nnc(-c2c(-c3c(F)cccc3Cl)noc2-c2cnn(-c3ccncc3)c2C(F)(F)F)o1

>  <system>
PBMC from healthy human donors

>  <pIC50>
6.00 to 7.00

$$$$
>  <chemicalStructure>
Fc1cccc(-n2ncc(-c3onc(-c4c(F)cccc4Cl)c3-c3ccco3)c2C(F)(F)F)c1

>  <system>
PBMC from healthy human donors

>  <pIC50>
> 8.00

$$$$
>  <chemicalStructure>
Cc1nnc(-c2c(-c3c(F)cccc3Cl)noc2-c2cnn(-c3cccnc3)c2C(F)(F)F)o1

>  <system>
PBMC from healthy human donors

>  <pIC50>
6.00 to 7.00

$$$$
>  <chemicalStructure>
Cc1nnc(-c2c(-c3c(F)cccc3Cl)noc2-c2cnn(-c3ccncc3)c2C(F)(F)F)s1

>  <system>
PBMC from healthy human donors

>  <pIC50>
6.00 to 7.00

$$$$
>  <chemicalStructure>
Fc1cccc(Cl)c1-c1noc(-c2cnn(-c3cccc(Cl)c3)c2C(F)(F)F)c1-c1nnco1

>  <system>
PBMC from healthy human donors

>  <pIC50>
> 8.00

$$$$
>  <chemicalStructure>
Fc1ccccc1-n1ncc(-c2onc(-c3c(F)cccc3Cl)c2-c2nnco2)c1C(F)(F)F

>  <system>
PBMC from healthy human donors

>  <pIC50>
6.00 to 7.00

$$$$
>  <chemicalStructure>
Fc1cccc(Cl)c1-c1noc(-c2cnn(-c3ccncc3)c2C(F)(F)F)c1-c1ccoc1

>  <system>
PBMC from healthy human donors

>  <pIC50>
7.00 to 8.00

$$$$
>  <chemicalStructure>
Cc1nnc(-c2c(-c3c(F)cccc3Cl)noc2-c2cnn(-c3cccc(Cl)c3)c2C(F)(F)F)s1

>  <system>
PBMC from healthy human donors

>  <pIC50>
> 8.00

$$$$
